experimental.target: P2Y purinoceptor 12 (Homo sapiens, UniProt Q9H244)
Sequence (Q9H244 whole entry): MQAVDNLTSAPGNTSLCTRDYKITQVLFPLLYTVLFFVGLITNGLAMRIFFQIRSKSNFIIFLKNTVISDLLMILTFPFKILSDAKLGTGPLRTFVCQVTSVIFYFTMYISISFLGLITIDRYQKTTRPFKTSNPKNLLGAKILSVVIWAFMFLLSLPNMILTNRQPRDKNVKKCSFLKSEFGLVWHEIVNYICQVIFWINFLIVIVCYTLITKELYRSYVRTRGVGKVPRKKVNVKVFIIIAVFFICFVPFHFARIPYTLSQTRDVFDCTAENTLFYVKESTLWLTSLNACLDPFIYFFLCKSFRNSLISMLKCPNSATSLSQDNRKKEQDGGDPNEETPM
protocol.summary: Displacement of [3H]PSB0413 from human platelet P2Y12 receptor at 10 uM
Our labelling divides records by inhibition into ranges: lower = under 4%, middle = from 4% up to 20%, upper = 20% and over

Lab log: Nc1ccccc1Nc1cc(S(=O)(=O)O)c(N)c2c1C(=O)c1ccccc1C2=O — assign inhibition category upper

Sort COc1cccc2c1C(=O)c1c(O)c3c(c(O)c1C2=O)C[C@@](O)(C(=O)CO)C[C@@H]3O[C@H]1C[C@H](N)[C@H](O)[C@H](C)O1 into one of the categories. middle

Which of the defined bands does the recorded inhibition of COc1ccc(CCNc2cc(S(=O)(=O)O)c(N)c3c2C(=O)c2ccccc2C3=O)cc1OC sit within? upper

GET /class?item= O=C1c2cccc(O)c2C(=O)c2c(O)cc(CO)cc21 lower

Lab note: which band did Cc1cc(C)c(Nc2cc(S(=O)(=O)O)c(N)c3c2C(=O)c2ccccc2C3=O)c(C)c1N land in? upper

Bin? CN(C)[C@@H]1C(O)=C(C(N)=O)C(=O)[C@@]2(O)C(O)=C3C(=O)c4c(O)cccc4[C@@](C)(O)[C@H]3C[C@@H]12 lower

Hi there! Could you help me figure out the category for O=C1c2c(O)cccc2C([C@@H]2O[C@H](CO)[C@@H](O)[C@H](O)[C@H]2O)c2cc(CO)cc(O)c21 (stereo partly specified) please? lower

Textbook exercise: identify the category of the molecule given here, Nc1c(S(=O)(=O)O)cc(NCCc2ccccc2)c2c1C(=O)c1ccccc1C2=O , according to its measured value. middle

GET /class?item= COC(=O)c1cc(O)c2c(c1)C(=O)c1cccc(O)c1C2=O lower

Bin this entry: Cc1cc(C)c(Nc2cc(S(=O)(=O)O)c(N)c3c2C(=O)c2ccccc2C3=O)c(C)c1 upper

Hi, small favor: classify Nc1c(S(=O)(=O)O)cc(Nc2ccc(Nc3ncccn3)cc2)c2c1C(=O)c1ccccc1C2=O by its inhibition when you get a moment. upper

Band for the recorded inhibition of Cc1cc(O)c2c(c1)Cc1cc(O)cc(O)c1C2=O ? lower

Which class holds Nc1c(S(=O)(=O)[O-])cc(Nc2cccc3ccccc23)c2c1C(=O)c1ccccc1C2=O.[Na+] ? upper

State the band of CN(C)[C@@H]1C(O)=C(C(N)=O)C(=O)[C@@]2(O)C(O)=C3C(=O)c4c(O)ccc(Cl)c4[C@@](C)(O)[C@H]3C[C@@H]12 middle

----------
protocol.summary: Toxicity in po dosed rat
Type: organism-based
test.parameters: in vivo
attribute.measured: LD50

Give reported LD50 value for Nc1ccc(-c2ccc(N)c3c2C(=O)c2ccccc2C3=O)c2c1C(=O)c1ccccc1C2=O > 5000 mg/kg

----------
protocol.summary: Cytotoxicity against human 1539 cells after 72 hrs to 144 hrs by MTT assay
Assay type: functional, cell-based
attribute.measured: EC50 (µM)
Form entry: value (µM) — number only.

Specify measured EC50 for O=c1[nH]cc(F)c(=O)[nH]1 . 5.71

----------
experimental.target: P2Y purinoceptor 12 (Homo sapiens)
protocol.summary: Displacement of [3H]PSB0413 from human platelet P2Y12 receptor at 10 uM
Parameter threshold = 10%. Response is true when inhibition meets or exceeds it, else false.

Tell me whether inhibition is at least 10% here: Nc1ccc(Nc2cc(S(=O)(=O)O)c(N)c3c2C(=O)c2ccccc2C3=O)cc1 true

Does Nc1c(S(=O)(=O)O)cc(NCc2ccccc2)c2c1C(=O)c1ccccc1C2=O have a reported inhibition of at least 10%? true

Check the entry Cc1cc(O)c2c(c1)C(=O)c1cc(O)cc(O)c1C2=O [EMODIN] : does inhibition equal or exceed 10%? false

Given Nc1c(S(=O)(=O)O)cc(Nc2ccccc2O)c2c1C(=O)c1ccccc1C2=O , state whether its inhibition is at least 10%. true

Hello, I need to know if Nc1c(S(=O)(=O)O)cc(Nc2ccc(O)cc2)c2c1C(=O)c1ccccc1C2=O has measured inhibition not below 10%. Thanks! true

Decide: inhibition of CC(=O)Nc1ccc(Nc2cc(S(=O)(=O)O)c(N)c3c2C(=O)c2ccccc2C3=O)cc1 >= 10%? false

Confirm if inhibition reported for the compound Nc1c(S(=O)(=O)O)cc(Nc2cccc([N+](=O)[O-])c2)c2c1C(=O)c1ccccc1C2=O is 10% or above. true

Answer whether inhibition of Cc1cc(O)c2c(c1)C(=O)c1cccc(O)c1C2=O [CHRYSOPHANOL] is greater than or equal to 10%. true

Does COc1cc(O)c2c(c1)C(=O)c1cc(C)cc(O)c1C2=O [PHYSCION] have a reported inhibition of at least 10%? false
